- Test system: platelets
- assay.info: Platelet aggregation in response to collagen after treatment of platelet concentrate
- Type: cell-based
- condition.set: flavonoid present, no AMT/UVA treatment, overnight storage
reported.metric: % Untreated Control - Extent of Aggregation Response to Collagen, untreated

{"compound": "O=c1c(O)c(-c2ccc(O)c(O)c2)oc2cc(O)cc(O)c12 [quercetin]", "readout.value": "100/100 % Untreated Control"}
{"compound": "O=c1cc(-c2ccccc2)oc2cc(O)cc(O)c12 [chrysin]", "readout.value": "100/100 % Untreated Control"}

Task: Recorded % Untreated Control - Extent of Aggregation Response to Collagen, untreated of C[C@@H]1O[C@@H](OC[C@H]2O[C@@H](Oc3c(-c4ccc(O)c(O)c4)oc4cc(O)cc(O)c4c3=O)[C@H](O)[C@@H](O)[C@@H]2O)[C@H](O)[C@H](O)[C@H]1O [rutin] , please.
Output: 100/100 % Untreated Control
